target: T1, rat TrkB extracellular domain expressed with a C-terminal myc-myc-hexahistidine tag (rat, UniProt Q63604 32-429); assay: blocking ELISA, rat TrkB.mmh pre-mixed with mAb, plate-coated BDNF
T1 construct: also called rTrkB.mmH; rTRKB.mmH
T1 sequence (Q63604 other isoform, or with tags, fused parts or gaps): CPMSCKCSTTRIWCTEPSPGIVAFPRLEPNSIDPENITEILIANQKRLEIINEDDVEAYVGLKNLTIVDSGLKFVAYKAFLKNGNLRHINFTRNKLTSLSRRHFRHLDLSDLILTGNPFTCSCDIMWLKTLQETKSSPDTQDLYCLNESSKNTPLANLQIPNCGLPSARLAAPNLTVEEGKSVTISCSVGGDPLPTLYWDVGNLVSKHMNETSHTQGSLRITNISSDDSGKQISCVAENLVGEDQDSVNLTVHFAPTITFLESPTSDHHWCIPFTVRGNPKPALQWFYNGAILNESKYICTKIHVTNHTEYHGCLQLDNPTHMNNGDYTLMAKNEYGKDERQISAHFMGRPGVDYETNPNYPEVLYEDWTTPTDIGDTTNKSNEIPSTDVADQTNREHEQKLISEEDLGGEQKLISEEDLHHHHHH
result_type: % Blockade with 100 nM antibody (%)
Use % as the unit, but write only the number.

Sample answers from the record:
>>> obs_value("M2aM14178N (antibody, mouse IgG2a, V domains shown, Anti-mouse TrkB antibody from hybridoma, mouse IgG2a Fc; also called surrogate anti-mouse TrkB antibody) VH: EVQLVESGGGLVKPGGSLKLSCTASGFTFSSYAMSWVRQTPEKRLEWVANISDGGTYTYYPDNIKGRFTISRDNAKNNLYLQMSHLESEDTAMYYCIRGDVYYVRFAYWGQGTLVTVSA VL: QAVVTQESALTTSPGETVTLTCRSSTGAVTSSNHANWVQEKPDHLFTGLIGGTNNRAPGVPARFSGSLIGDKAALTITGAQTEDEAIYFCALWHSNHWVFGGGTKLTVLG")
89.5
>>> obs_value("H1M8037C (antibody, mouse IgG1, kappa, V domains shown, captured by anti-mFc in SPR; also called Comparator; comparator anti-TrkB monoclonal antibody) VH: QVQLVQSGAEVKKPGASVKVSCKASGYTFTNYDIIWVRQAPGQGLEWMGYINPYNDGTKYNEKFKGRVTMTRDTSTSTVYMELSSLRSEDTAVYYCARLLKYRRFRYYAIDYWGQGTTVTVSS VL: DIQMTQSPSSLSASVGDRVTITCRTSENVYSNLAWYQQKPGKAPKLLIYAASNLQSGVPSRFSGSGSGTDYTFTISSLQPEDIATYYCQHFWGSPFTFGQGTKLEIKR")
83.3
>>> obs_value("M2aM14173N (antibody, mouse IgG2a, kappa, V domains shown, Anti-mouse TrkB antibody from hybridoma, mouse IgG2a Fc; also called surrogate anti-mouse TrkB antibody) VH: NVSLVESGGGSVKPGGSLQLSCAASGFTFSSSAMSWIRQTPEMRLEWVATISDRGSYTYYPDSVEGRFTISRDNAKNILYLQMSHLMSEDTAMYYCARGKGEKAYYTAFFAYWGQGSLVTVSA VL: DIQMTQSPASLSASVGETVTITCRASENIYSYLAWYQQKPGKSPHLLVHNAETLAEGVPSRFSGSGSGPQFSLKINSLQPGDSGTYYCQHHYSSPWTFGGGTKLEIKR")
80.7

Lab note: next binder to report on.
Need % Blockade with 100 nM antibody, item M2aM14179N (antibody, mouse IgG2a, kappa, V domains shown, Anti-mouse TrkB antibody from hybridoma, mouse IgG2a Fc; also called surrogate anti-mouse TrkB antibody) VH: EVQLQQSGPELVKPGASVKISCKASGYTLTDYYMNWVKQSHGKSLEWIGDINPNNGGTSYNQKFKGKATLTVDKSSSTAYMELRSLTSEDSAVYYCARGAYYSNYFDYWGQGTTLTVSS VL: DIVMSQSPSSLAVSAGEKVTMSCKSSQSLLNSRTRKNYLAWYQQKPGQSPKLLIYWASTRESGVPDRFTGSGSGTDFTLTISSVQAEDLAVYYCKQSYILFTFGSGTQLEIKR
-38.1

Reference source: patent US20190161551A1
